test system: human cord blood CD34+ cells; experiment: Bone marrow stem cell (hematopoietic trilineage) colony formation assay; format: cell-based; conditions: normal bone marrow; compound at 40 µM; total colonies at 8 days; N = 2
reported-property: Mean Number of Colonies, % of Control, 8 days

c1ccc2sc(-c3ccc(CNc4ccc5nnnn5n4)o3)nc2c1 [Dxr2-017] | 70 % of Control
O=C(CCc1c[nH]c2ccccc12)N1CCSc2ccccc21 [FolC2-005] | 105 % of Control
O=C(Cc1n[nH]c(=O)c2ccccc12)Nn1cnc2ccccc21 [TYLT-001] | 117 % of Control
Cc1nnsc1C(=O)OCCCn1c(=O)[nH]c2ccccc21 [Dxr2-001] | 109 % of Control
O=C(Nc1nnn[nH]1)c1cc(-c2ccccc2)nc2ccccc12 [PRT-051] | 93 % of Control
Cc1[nH]c(=O)[nH]c1C(=O)CCCCC(=O)O [EPSP-023] | 94 % of Control
c1ccc(CCc2n[nH]c(-c3ccccn3)n2)cc1 [FolC1-031] | 80 % of Control
O=C(Cn1c(=O)oc2ccccc21)N1CCn2c1nc1ccccc12 [FolC2-001] | 108 % of Control

Determine from records and report Mean Number of Colonies, % of Control, 8 days for O=C(COC(=O)c1cccs1)c1ccc2[nH]c(=O)[nH]c2c1 [TYLT-003] 97 % of Control
